Known EC50 of a selection of molecules
- targetDesc: CHOK1 cells engineered to overexpress human CCR2 (Homo sapiens, UniProt P41597)
- Construct: expressed in transfected cells; host or cells: CHOK1 cells
- assay: Antibody dependent cellular cytotoxicity (ADCC) reporter assay (Example 199)
- Format: cell-based
- conditionDescription: with anti-cotinine antibody SEQ ID NO: 11/12; CHOK1-human CCR2 target cells, Jurkat FcγRIIIa NFAT-luciferase reporter cells; 12-18 hours; read-out: ADCC Reporter Assay pEC50 (converted)
Give the value, in units of nM, as a plain number.

CN1C(=O)C[C@H](C(=O)NCCO[C@H]2CC[C@H](OCCCC(=O)N[C@H]3CC[C@H](C(=O)N[C@@H]4C[C@H](NC(C)(C)C)CC[C@@H]4N4CC[C@H](Nc5ncnc6ccc(C(F)(F)F)cc56)C4=O)CC3)CC2)[C@H]1c1cccnc1 [Example 10] ... 3.16

Here is another molecule to look at.
Measured EC50, CC(C)N(C)[C@@H]1CC[C@H](N2CC[C@H](Nc3ncnc4ccc(C(F)(F)F)cc34)C2=O)[C@H](NC(=O)[C@H]2CC[C@H](N3CCN(CCOCCOCCNC(=O)[C@H]4CC(=O)N(C)[C@@H]4c4cccnc4)CC3)CC2)C1 [compound 190] : 2.51

Data origin, for the record: patent US20250136722A1
